Biological target: EPHB1 (UniProt P54762)
Sequence (P54762 whole entry, looked up): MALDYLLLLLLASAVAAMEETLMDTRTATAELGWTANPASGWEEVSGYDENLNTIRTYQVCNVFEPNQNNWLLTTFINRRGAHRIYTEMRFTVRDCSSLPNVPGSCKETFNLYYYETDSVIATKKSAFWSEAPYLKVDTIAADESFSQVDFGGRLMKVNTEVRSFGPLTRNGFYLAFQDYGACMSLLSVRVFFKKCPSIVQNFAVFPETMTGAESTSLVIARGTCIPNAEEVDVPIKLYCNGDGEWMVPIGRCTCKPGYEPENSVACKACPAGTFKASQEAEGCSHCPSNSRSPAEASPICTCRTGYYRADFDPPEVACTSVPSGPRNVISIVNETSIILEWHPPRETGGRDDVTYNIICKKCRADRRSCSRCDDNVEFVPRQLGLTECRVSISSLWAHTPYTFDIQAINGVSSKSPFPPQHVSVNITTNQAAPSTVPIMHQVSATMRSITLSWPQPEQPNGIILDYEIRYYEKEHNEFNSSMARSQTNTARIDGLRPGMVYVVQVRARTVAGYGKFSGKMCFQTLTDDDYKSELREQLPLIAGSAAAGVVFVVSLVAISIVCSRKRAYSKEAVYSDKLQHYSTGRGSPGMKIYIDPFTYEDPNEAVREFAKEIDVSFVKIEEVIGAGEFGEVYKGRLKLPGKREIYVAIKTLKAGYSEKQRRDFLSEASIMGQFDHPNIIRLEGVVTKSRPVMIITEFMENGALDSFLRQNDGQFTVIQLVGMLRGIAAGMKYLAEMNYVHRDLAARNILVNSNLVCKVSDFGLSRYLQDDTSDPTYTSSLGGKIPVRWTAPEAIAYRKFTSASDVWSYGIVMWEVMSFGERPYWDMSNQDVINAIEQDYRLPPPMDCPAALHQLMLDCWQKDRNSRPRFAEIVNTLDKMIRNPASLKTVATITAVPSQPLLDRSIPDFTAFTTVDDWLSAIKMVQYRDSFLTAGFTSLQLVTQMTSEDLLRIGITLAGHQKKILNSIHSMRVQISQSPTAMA
Test: phosphorylation enrichment, bacterial display (enrichment ratio); higher = better substrate or ligand; peptides without Tyr show the background
Provide the reported phosphorylation enrichment of each item.
Give bare numbers.

Hi! Can you tell me phosphorylation enrichment for each of these sequences?
1. EFNLMYHGTKE [IRF6_Y97_D98H]
2. GMIQAYSSSQR [DES_Y5_S2I]
3. VLTSTYRGGGG [HBA1_Y141_K140T]

Outgoing:
[0.631, 0.401, 0.315]

Hi! Can you tell me phosphorylation enrichment for each of these sequences?
1. RLRKFHLGKFL [KLB_Y906_Y906H_YF]
2. GMAHNYRNRSQ [AASS_Y188_S191R]
3. CRIELYRVVES [IGFBP1_Y181]
4. HQEPVYSVAFS [TBL1X_Y509]
5. NELTFYCFKKD [CD59_Y87_C89Y_YF]
6. TIAIRYSHSRR [ACOXL_Y260]
7. FSLPAYMDRRD [COX4I1_Y38]
8. KDFTKYVAFIE [KDM4B_Y31_N29T_YF]

Outgoing:
[1.17, 0.414, 0.989, 25.8, 0.541, 0.363, 0.459, 0.55]

Hi! Can you tell me phosphorylation enrichment for each of these sequences?
1. IKNSGYISRYL [EIF2AK3_Y585]
2. QKMFDYLKEKK [RYR2_Y3780_L3778F]
3. KVALVYGQMNQ [ATP5F1B_Y269_E274Q]
4. APGNAYGDAGY [SYP_Y250_D248N]
5. SVVVPYEPPEV [TP53_Y220]
6. TVDASYCGGRG [ANTXR2_Y380_Y381C]
7. YFRDGYMPRQY [GSS_Y270]
8. MDDDQYALLTA [EFCAB6_Y675_T680A]

Outgoing:
1: 0.443; 2: 0.558; 3: 0.496; 4: 0.515; 5: 0.532; 6: 0.393; 7: 0.429; 8: 0.547

Hi! Can you tell me phosphorylation enrichment for each of these sequences?
1. LVQAEYWHDPI [PPT1_Y185]
2. DRFANYIEKVR [DES_Y122]
3. TVLEPYADPFF [ZC3H18_Y367_YF]
4. WISNRYLDFSS [PRPH2_Y184]
5. ELCSEYHKSRK [SPINK5_Y440_R441H]
6. LTRDIYKNDYY [ROS1_Y2110_A2106T]
7. VRHRRYKHTHE [CTCF_Y343]
8. ETRWKYHFEVV [GCNT3_Y267]

Outgoing:
[0.677, 0.523, 0.432, 0.505, 0.405, 2.15, 0.55, 0.701]

Hi! Can you tell me phosphorylation enrichment for each of these sequences?
1. CTLTHYKSAVK [ASNS_Y555_R550C]
2. NTGFFYDLFGG [PTPN11_Y63_D61Y_YF]

Outgoing:
1. 0.564
2. 0.693

* * *

System: c-Abl (mouse)
Test: phosphorylation enrichment, bacterial display (enrichment ratio); higher = better substrate or ligand; peptides without Tyr show the background
assay_readout: phosphorylation enrichment
Numbers only.

A selection of reference data follows.
- item_sequence: "FGSSSSGGAGG [RPA2_Y14_Y14S_YF]"
  phosphorylation enrichment: 0.511
- item_sequence: "RLRKFHLGKFL [KLB_Y906_Y906H_YF]"
  phosphorylation enrichment: 0.948
- item_sequence: "SARSAYQEAID [SFN_Y151_M155I]"
  phosphorylation enrichment: 0.83
- item_sequence: "PVQDAYQKVVA [HBB_Y131_A129D]"
  phosphorylation enrichment: 0.421
- item_sequence: "DKATEYSQFMR [MAX_Y70_I71S_YF]"
  phosphorylation enrichment: 0.519

Hi! Can you tell me phosphorylation enrichment for each of these sequences?
1. FGFPGYQSKHF [TIMP3_Y177_YF]
2. VLAHKYHGGGG [HBB_Y146_A141V]
3. DKANRYFSPNV [PTEN_Y336_F341V]
4. GDRPVYSEDEQ [CHST6_Y362_Y358D]
5. ADLAKYICENR [ALB_Y287_Q292R]
6. TLMNAYSSRSH [KIF11_Y231]

Outgoing:
[0.574, 0.405, 0.486, 1.06, 1.36, 0.57]

* * *

Molecular target: Jak2 (UniProt O60674)
Sequence (O60674 whole entry, looked up): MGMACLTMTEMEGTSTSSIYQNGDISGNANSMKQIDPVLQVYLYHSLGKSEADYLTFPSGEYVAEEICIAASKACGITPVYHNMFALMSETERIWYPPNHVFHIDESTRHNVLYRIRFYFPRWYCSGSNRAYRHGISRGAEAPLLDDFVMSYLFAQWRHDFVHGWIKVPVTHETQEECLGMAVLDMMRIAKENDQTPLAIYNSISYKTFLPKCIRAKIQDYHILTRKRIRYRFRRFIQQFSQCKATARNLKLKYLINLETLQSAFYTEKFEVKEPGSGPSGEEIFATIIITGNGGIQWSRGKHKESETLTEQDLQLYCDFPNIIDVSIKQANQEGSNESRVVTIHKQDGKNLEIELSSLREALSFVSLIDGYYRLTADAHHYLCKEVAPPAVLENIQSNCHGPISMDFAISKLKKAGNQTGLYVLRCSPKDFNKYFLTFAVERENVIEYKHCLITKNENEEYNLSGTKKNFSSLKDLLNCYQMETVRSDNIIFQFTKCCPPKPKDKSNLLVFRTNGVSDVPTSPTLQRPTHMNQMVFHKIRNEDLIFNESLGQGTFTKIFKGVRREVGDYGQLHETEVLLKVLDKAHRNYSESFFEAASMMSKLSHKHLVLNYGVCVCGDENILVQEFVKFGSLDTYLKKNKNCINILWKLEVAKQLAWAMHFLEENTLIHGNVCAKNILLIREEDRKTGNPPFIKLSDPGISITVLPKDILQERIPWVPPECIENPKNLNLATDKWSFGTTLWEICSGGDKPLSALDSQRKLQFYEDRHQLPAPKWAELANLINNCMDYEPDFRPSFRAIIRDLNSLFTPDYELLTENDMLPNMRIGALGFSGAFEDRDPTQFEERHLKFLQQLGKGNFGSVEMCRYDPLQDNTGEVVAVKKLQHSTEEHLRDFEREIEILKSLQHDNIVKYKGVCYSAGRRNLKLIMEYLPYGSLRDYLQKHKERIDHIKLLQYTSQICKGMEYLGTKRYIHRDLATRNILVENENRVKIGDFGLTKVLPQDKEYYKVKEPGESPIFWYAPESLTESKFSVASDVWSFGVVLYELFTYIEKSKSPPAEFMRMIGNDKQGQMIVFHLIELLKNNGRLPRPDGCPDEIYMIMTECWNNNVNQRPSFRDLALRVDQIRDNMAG
Assay: phosphorylation enrichment, bacterial display (enrichment ratio); higher = better substrate or ligand; peptides without Tyr show the background
Provide the reported phosphorylation enrichment of each item.

- item_sequence: "CTTIHKNYMCN [TP53_Y234_Y234K]"
  target_under_test: "Jak2 (UniProt O60674)"
  phosphorylation enrichment: 0.702
- item_sequence: "QNKEDYDGLKE [GSTO1_Y139_A140D]"
  target_under_test: "Jak2 (UniProt O60674)"
  phosphorylation enrichment: 1.13
- item_sequence: "KDFTKYVAYIE [KDM4B_Y31_N29T]"
  target_under_test: "Jak2 (UniProt O60674)"
  phosphorylation enrichment: 0.921
- item_sequence: "QPGTDYKIYLY [FN1_Y1970]"
  target_under_test: "Jak2 (UniProt O60674)"
  phosphorylation enrichment: 1.69
- item_sequence: "VRSTEYPCAGL"
  target_under_test: "Jak2 (UniProt O60674)"
  phosphorylation enrichment: 0.713
- item_sequence: "LDCNEYFRDLN [HPRT1_Y198_Y195C]"
  target_under_test: "Jak2 (UniProt O60674)"
  phosphorylation enrichment: 1.5

Now turn to the next sequence.
Note to self: phosphorylation enrichment recorded for NTGFFYDLFGG [PTPN11_Y63_D61Y_YF] was 1.19

* * *

Provide the reported SH2 binding enrichment of each item.
Biological target: c-Src SH2
Experiment: SH2 binding enrichment of the phosphorylated peptide, bacterial display (enrichment ratio); higher = better substrate or ligand; peptides without Tyr show the background
One number for each entry.

- item_sequence: "CTSIHYNYMCN [TP53_Y234_T231S]"
  target_under_test: "c-Src SH2"
  assay_readout: "SH2 binding enrichment"
  value_observed: 6.03
- item_sequence: "LKGQVYILGWE [ASS1_Y359_R363W]"
  target_under_test: "c-Src SH2"
  assay_readout: "SH2 binding enrichment"
  value_observed: 0.684

Hi! Can you tell me SH2 binding enrichment for each of these sequences?
1. TEIGQYGNGLK [MORC2_Y100_Q96E]
2. EFGEVYKGTLK [EPHA2_Y628_M631T]
3. FPPTHYIRRMP [SLC4A11_Y820_V824M_YF]
4. SVVVRYEPPEV [TP53_Y220_P219R]

Outgoing:
1: 0.51; 2: 0.473; 3: 0.506; 4: 0.882

Hi! Can you tell me SH2 binding enrichment for each of these sequences?
1. KTVQDYLEKFY [MMP8_Y36]
2. RLLRGYRQDAF [HLA-A_Y137_F133L_YF]
3. SSVAGYACLAF [MVD_Y131_A128V_YF]
4. QISQDYGVLLE [PRDX3_Y172_R170Q]

Outgoing:
0.51
0.465
1.76
0.516

Hi! Can you tell me SH2 binding enrichment for each of these sequences?
1. FVSAAYVKKLD [SPTAN1_Y1020_P1017S]
2. VLAHKYHGGGG [HBB_Y146_A141V]
3. TVSSDYLHPQY [CCPG1_Y569_F566S]
4. ASRKFYAMKIL [AKT3_Y174_G171R_YF]

Outgoing:
[0.379, 0.464, 0.762, 0.543]

* * *

Target: c-Src SH2;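 further: peptide library displayed on the E. coli surface as eCPX fusions, selected cells deep-sequenced, score is each peptide's frequency after selection divided by its frequency in the input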
Test: SH2 binding enrichment of the phosphorylated peptide, bacterial display (enrichment ratio); higher = better substrate or ligand; peptides without Tyr show the background
Provide the reported SH2 binding enrichment of each item.
Numbers only.

A selection of reference data follows.
- item_sequence: "KVVVPYEPPEV [TP53_Y220_S215K]"
  SH2 binding enrichment: 0.86
- item_sequence: "TFRPPYFHRDC [HGD_Y333_N337D_YF]"
  SH2 binding enrichment: 0.93
- item_sequence: "SEASYYKSLNL [NGEF_Y289]"
  SH2 binding enrichment: 0.588

Hi! Can you tell me SH2 binding enrichment for each of these sequences?
1. PASLSYLSFEG [EXOSC3_Y143]
2. HSGIYYKPESL [L2HGDH_Y103]

Outgoing:
1. 0.696
2. 0.601

Hi! Can you tell me SH2 binding enrichment for each of these sequences?
1. DIRAQYDELAR [KRT18_Y256]
2. GFPVHYTDVSN [DNMT3B_Y815]
3. NLNGKYYKPRA [ANGPTL3_Y417_N418Y]

Outgoing:
1. 7.06
2. 3.96
3. 0.861

* * *

Target: Jak2 (UniProt O60674)
Assay: phosphorylation enrichment, bacterial display (enrichment ratio); higher = better substrate or ligand; peptides without Tyr show the background
Parameter threshold = 0.8. Response is T when phosphorylation enrichment meets or exceeds it, else F.

// known answers, use as guide
- item_sequence: "VSSPKYGSDDE [TMCC2_Y473]"
  label_value: "T"
- item_sequence: "SVVVPYKPPEV [TP53_Y220_E221K]"
  label_value: "F"
- item_sequence: "TAPFNYSFIFK [RAB14_Y8_YF]"
  label_value: "F"
- item_sequence: "KENITYMKREQ [L1TD1_Y24]"
  label_value: "T"
- item_sequence: "EKFVPYYDLFM [IPO5_Y530]"
  label_value: "T"
- item_sequence: "LLKAGYQGVLR [TTPA_Y100_H101Q]"
  label_value: "F"

Incoming: Is phosphorylation enrichment for IKNSGYISRYL [EIF2AK3_Y585] at or above 0.8?
Outgoing: F

Incoming: Is phosphorylation enrichment for NREGVYTVFAP [TGFBI_Y537] at or above 0.8?
Outgoing: T

Incoming: Is phosphorylation enrichment for FPMLNYKDIRK [CFAP221_Y798] at or above 0.8?
Outgoing: F

Incoming: Is phosphorylation enrichment for TFWKKYRTFWK [CCDC70_Y125] at or above 0.8?
Outgoing: T

Incoming: Is phosphorylation enrichment for APGNAYGDAGY [SYP_Y250_D248N] at or above 0.8?
Outgoing: T

Incoming: Is phosphorylation enrichment for KLLLKYSFHDA [RNF213_Y4141_V4146A] at or above 0.8?
Outgoing: T

Incoming: Is phosphorylation enrichment for VVTGPYEKPSL [KIR3DS1_Y221_L220P] at or above 0.8?
Outgoing: F

Incoming: Is phosphorylation enrichment for TYGVAYRAKDK [CDK11B_Y453_V452A] at or above 0.8?
Outgoing: F
